Each entry below carries its recorded EC50.
biological target: REV-ERBα LBD (human; residues 281-614 Δ324-422) (Homo sapiens, UniProt P20393, DEL324-422); construct: 6×Histag-REV-ERBα LBD (human; residues 281-614 Δ324-422); made in house; host or cells: Escherichia coli; assay: TR-FRET corepressor interaction assay (REV-ERBα LBD, FITC-SMRT peptide); assay type: biochemical; conditions: FITC-SMRT peptide, read-out: REVERBα agonism (EC50 class, FRET assay)
Sequence (P20393 with tags, fused parts or gaps DEL324-422): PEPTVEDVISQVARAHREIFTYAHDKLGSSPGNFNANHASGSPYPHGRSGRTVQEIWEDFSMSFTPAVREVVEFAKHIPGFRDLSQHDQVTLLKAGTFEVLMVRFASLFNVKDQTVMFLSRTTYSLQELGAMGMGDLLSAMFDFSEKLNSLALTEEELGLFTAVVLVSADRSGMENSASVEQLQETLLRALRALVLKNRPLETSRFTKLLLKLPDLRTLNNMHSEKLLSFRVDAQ
Sequence (Q9Y618 2335-2356 partner limits assumed): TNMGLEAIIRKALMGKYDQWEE

Problem: Entry CC(C)(C)Cn1cc([C@H](NS(=O)(=O)C2CC(F)C2)C(F)(F)F)c2ccc(-c3ccccc3C(F)(F)F)cc21 (stereo partly shown) [Example 437] : reported EC50 = ?
Solution: 500 to 3000 nM

Problem: Entry CC(C)(C)Cn1cc([C@H](NS(=O)(=O)C2CCC2)C(F)(F)F)c2ccc(C3CCCC3)nc21 [Example 427] : reported EC50 = ?
Solution: < 500 nM

Problem: Entry CC(C)(C)Cn1cc([C@H](NS(=O)(=O)C2CC2)C(F)(F)F)c2ccc(-c3ccccc3C#N)cc21 [Example 462] : reported EC50 = ?
Solution: < 500 nM

Problem: Entry CC(C)(CO)Cn1cc([C@H](NS(=O)(=O)C2CC2)C(F)(F)F)c2cc(F)c(-c3ccccc3C(F)(F)F)cc21 [Example 490] : reported EC50 = ?
Solution: 500 to 3000 nM

---

biological target: REV-ERBα LBD (human; residues 281-614 Δ324-422) (Homo sapiens, UniProt P20393, DEL324-422); construct: 6×Histag-REV-ERBα LBD (human; residues 281-614 Δ324-422); made in house; host or cells: Escherichia coli; assay: TR-FRET corepressor interaction assay (REV-ERBα LBD, FITC-SMRT peptide); assay type: biochemical; conditions: FITC-SMRT peptide, read-out: REVERBα agonism (EC50 class, FRET assay)
pEC50: −log10 of the molar value.
Reported property: pEC50

* [2H]C([2H])([2H])C(NS(=O)(=O)C1CCC1)c1cn(CC(C)(C)C)c2cc(-c3ccccc3C(F)(F)F)ccc12 (stereo not shown) [Example 509] | > 6.30
* CC(C)(C)Cn1cc([C@H](NS(=O)(=O)C2CC2)C(F)F)c2ccc(-c3ccccc3C(F)(F)F)c(F)c21 [Example 553] | > 6.30
* CC(C)(C)C(=O)n1cc([C@H](NS(=O)(=O)C2CC2)C(F)(F)F)c2ccc(-c3ccccc3C(F)(F)F)cc21 [Example 480] | 5.52 to 6.30

Problem: Entry CC(C)(C)Cn1cc([C@H](NS(=O)(=O)C2CCC2)C(F)(F)F)c2cc(F)c(-c3cnccc3C(F)(F)F)cc21 [Example 530] : reported pEC50 = ?
Solution: > 6.30

---

molecular target: REV-ERBα LBD (human; residues 281-614 Δ324-422) (Homo sapiens, UniProt P20393, DEL324-422); construct: 6×Histag-REV-ERBα LBD (human; residues 281-614 Δ324-422); made in house; host or cells: Escherichia coli; assay: TR-FRET corepressor interaction assay (REV-ERBα LBD, FITC-SMRT peptide); assay type: biochemical; details: Table 2, read-out: REVERBα agonism (EC50 class, FRET assay)
pEC50: −log10 of the molar value.
Each entry below carries its recorded pEC50.

Past entries and their recorded results:
- CC(C)(C)Cn1cc([C@H](NS(=O)(=O)C2CC2)C(F)(F)F)c2ccc(-c3cccnc3)cc21: 5.52 to 6.30
- CCc1ccc2c(CCNS(=O)(=O)N(C)C)cn(CC(C)C)c2c1: > 6.30
- CC(C)Cn1cc(CCNS(=O)(=O)N(C)C)c2ccc(C3CCC3)cc21: > 6.30
- CC(C)Cn1cc([C@@H](NS(=O)(=O)C2CC2)C(F)(F)F)c2ccc(-c3ccccc3C(F)(F)F)cc21: 5.52 to 6.30
- CC(C)Cn1cc(CN(C)S(=O)(=O)N(C)C)c2ccc(-c3ccncc3)cc21: 5.52 to 6.30
- CC(C)(C)Cc1cn(CCNS(=O)(=O)C2CC2)c2ccc(-c3nccc4ccccc34)cc12: < 5.52
- CC(C)Cn1cc(-c2cnn(S(=O)(=O)C(C)C)c2)c2ccc(-c3ccccc3)cc21: < 5.52

Could you now consider this next compound?
Problem: Entry CN(C)S(=O)(=O)NCCc1cn(CC2CCOC2)c2cc(-c3ccncc3)ccc12 (centres unmarked) : reported pEC50 = ?
Solution: 5.52 to 6.30

---

biological target: REV-ERBα LBD (human; residues 281-614 Δ324-422) (Homo sapiens, UniProt P20393, DEL324-422); construct: 6×Histag-REV-ERBα LBD (human; residues 281-614 Δ324-422); made in house; host or cells: Escherichia coli; test: TR-FRET corepressor interaction assay (REV-ERBα LBD, FITC-SMRT peptide); assay type: biochemical; settings: Table 2, read-out: REVERBα agonism (EC50 class, FRET assay)
Reported property: EC50

• CC(C)Cn1cc([C@H](NS(=O)(=O)C2CC2)C(F)(F)F)c2ccc(-c3ccccc3C(F)(F)F)cc21 [Example 325] = < 500 nM
• CC(C)Cn1cc(CCNS(=O)(=O)C(C)C)c2cc(F)c(-c3ccccc3)cc21 = < 500 nM
• CC(C)Cn1cc(C(C)CNS(=O)(=O)C(C)C)c2ccc(-c3ccncc3)cc21 (centres unmarked) = < 500 nM

Problem: Entry "CC(C)Cc1cn(CCN(C)S(=O)(=O)C2CC2)c2ncc(-c3ccncc3)cc12" : reported EC50 = ?
Solution: 500 to 3000 nM

Problem: Entry "CC(=O)n1cc(CCNS(=O)(=O)N(C)C)c2ccc(-c3ccncc3)cc21" : reported EC50 = ?
Solution: > 3000 nM

Problem: Entry "CC(C)Cn1cc(CCNS(=O)(=O)N(C)C)c2ccc(NC(=O)Cc3ccccc3)cc21" : reported EC50 = ?
Solution: > 3000 nM

---

molecular target: REV-ERBα LBD (human; residues 281-614 Δ324-422) (Homo sapiens, UniProt P20393, DEL324-422); construct: 6×Histag-REV-ERBα LBD (human; residues 281-614 Δ324-422); made in house; host or cells: Escherichia coli; assay: TR-FRET corepressor interaction assay (REV-ERBα LBD, FITC-SMRT peptide); type: biochemical; conditions: Table 2, read-out: REVERBα agonism (EC50 class, FRET assay)
pEC50: −log10 of the molar value.
Reported property: pEC50

Past entries and their recorded results:
- CC(C)Cn1cc(CCNS(=O)(=O)N(C)C)c2ccccc21: 5.52 to 6.30
- CC(C)(C)Cc1cn(CCNS(=O)(=O)C2CC2)c2ccc(-c3ccc4ccccc4c3)cc12: 5.52 to 6.30
- O=S(=O)(N[C@@H](c1cn(CC2CC2)c2cc(-c3ccccc3C(F)(F)F)c(F)cc12)C(F)(F)F)C1CC1: > 6.30

Could you now consider this next molecule?
Problem: Entry "CN(C)S(=O)(=O)NCCc1cn(CCc2ccccc2)c2cc(-c3ccncc3)ccc12" : reported pEC50 = ?
Solution: 5.52 to 6.30

---

molecular target: REV-ERBα LBD (human; residues 281-614 Δ324-422) (Homo sapiens, UniProt P20393, DEL324-422); construct: 6×Histag-REV-ERBα LBD (human; residues 281-614 Δ324-422); made in house; host or cells: Escherichia coli; test: TR-FRET corepressor interaction assay (REV-ERBα LBD, FITC-SMRT peptide); assay type: biochemical; conditions: FITC-SMRT peptide, read-out: REVERBα agonism (EC50 class, FRET assay)
Each entry below carries its recorded EC50.

Past entries and their recorded results:
* CC(C)(C)Cn1cc(CCNS(=O)(=O)C2CC2)c2ccc(-c3cccc(C#N)c3Cl)cc21 | 500 to 3000 nM
* CC1(Cn2cc([C@H](NS(=O)(=O)C3CCC3)C(F)(F)F)c3ccc(-c4ccccc4C(F)(F)F)cc32)CC1 | < 500 nM
* CC(C)(C)Cn1cc([C@@H](CF)NS(=O)(=O)C2CCC2)c2cc(F)c(-c3ccccc3C(F)(F)F)cc21 | < 500 nM

Problem: Entry "O=S(=O)(N[C@@H](c1cn(CC2(C(F)(F)F)CC2)c2cc(-c3ccccc3C(F)(F)F)ccc12)C(F)(F)F)C1CCC1" : reported EC50 = ?
Solution: < 500 nM

Problem: Entry "CC(C)(C)Cn1cc([C@H](NS(=O)(=O)C2CCC2)C(F)(F)F)c2ccc(C3CC3)cc21" : reported EC50 = ?
Solution: < 500 nM

Problem: Entry "CC(C)(C)Cn1cc([C@H](NS(=O)(=O)C2CC2)C(F)(F)F)c2ccc(-c3c(Cl)cncc3Cl)cc21" : reported EC50 = ?
Solution: < 500 nM

Problem: Entry "[2H]C([2H])(n1cc([C@H](NS(=O)(=O)C2CC2)C(F)(F)F)c2ccc(-c3ccccc3C(F)(F)F)cc21)C(C)(C)C" : reported EC50 = ?
Solution: < 500 nM

Problem: Entry "CC(C)(C)Cn1cc([C@H](NS(=O)(=O)C2CCC2)C(F)F)c2ccc(-c3c(F)cccc3C(F)(F)F)cc21" : reported EC50 = ?
Solution: < 500 nM

Problem: Entry "CC(C)(C)Cc1cn(CCNS(=O)(=O)C2CCCC2)c2ccc(-c3ccc(C(F)(F)F)cc3C(F)(F)F)cc12" : reported EC50 = ?
Solution: < 500 nM

Problem: Entry "CN(C)C(=O)c1ccccc1-c1ccc2c([C@H](NS(=O)(=O)C3CC3)C(F)(F)F)cn(CC(C)(C)C)c2c1" : reported EC50 = ?
Solution: 500 to 3000 nM

Problem: Entry "CC(C)(C)Cn1cc([C@H](NS(=O)(=O)C2CCC2)C(F)F)c2ccc(-c3ccccc3C(F)(F)F)c(F)c21" : reported EC50 = ?
Solution: < 500 nM

Problem: Entry "CC(C)(C)Cn1cc([C@H](NS(=O)(=O)C2CCC2)C(F)(F)F)c2cc(F)c(C3CCCC3)cc21" : reported EC50 = ?
Solution: < 500 nM

Problem: Entry "CC(C)(C)Cn1cc([C@H](NS(=O)(=O)C2CCC2)C(F)F)c2ccc(-c3ccccc3C(F)(F)F)nc21" : reported EC50 = ?
Solution: < 500 nM

Problem: Entry "CC(C)(C)Cn1cc([C@H](NS(=O)(=O)C2CCC2)C(F)(F)F)c2ccc(-c3ccccc3C(F)(F)F)c(F)c21" : reported EC50 = ?
Solution: < 500 nM

Problem: Entry "CC(C)(C)Cn1cc([C@H](NS(=O)(=O)C2CC2)C(F)F)c2ccc(-c3c(F)cccc3C(F)(F)F)cc21" : reported EC50 = ?
Solution: < 500 nM
